ASSAY_SYSTEM: Orexin/Hypocretin receptor type 1 (Homo sapiens)
PROTOCOL_SUMMARY: Antagonist activity at human OX1R expressed in CHO cells assessed as reduction in [Ala6,12]orexin-A-induced intracellular Ca2+ mobilization incubated for 30 mins by Fluo-4AM dye based fluorescence assay
QUANTITY_MEASURED: log10(IC50) (log10 of the value in nM)

CCN(C(=O)c1cc(C)ccc1-c1ncccn1)[C@@H](C)Cn1nnc(-c2ccc(F)cc2)n1: 0.26
CCN(CCn1cc(-c2ccc(F)cn2)cn1)C(=O)c1cc(C)ccc1-n1nccn1: 0.96
CCN(C(=O)c1ccccc1-n1nccn1)[C@@H](C)Cc1noc(-c2ccc(F)cc2)n1: 0.10
CCN(C(=O)c1cc(C)ccc1-n1nccn1)[C@@H](C)Cn1cc(-c2ccc(F)cn2)cn1: -0.12
CCN(C(=O)c1cc(C)ccc1-n1nccn1)[C@@H](C)Cn1nnc(-c2ccc(F)cc2)n1: -0.09
CCN(C(=O)c1cc(F)ccc1-n1nccn1)[C@@H](C)Cn1nnc(-c2ccc(F)cn2)n1: 0.98
CCN(C(=O)c1cc(C)ccc1-n1nccn1)[C@@H](C)Cc1noc(-c2ccc(F)cc2)n1: 0.03
Cc1ccc(-n2nccn2)c(C(=O)NCCn2ccc(-c3ccc(F)cn3)n2)c1: 2.08
CCN(C(=O)c1nc(C)ccc1-n1nccn1)[C@@H](C)Cc1noc(-c2ccc(F)cc2)n1: 0.26

---

ASSAY_SYSTEM: Orexin/Hypocretin receptor type 1 (Homo sapiens, UniProt O43613)
Sequence (O43613 whole entry): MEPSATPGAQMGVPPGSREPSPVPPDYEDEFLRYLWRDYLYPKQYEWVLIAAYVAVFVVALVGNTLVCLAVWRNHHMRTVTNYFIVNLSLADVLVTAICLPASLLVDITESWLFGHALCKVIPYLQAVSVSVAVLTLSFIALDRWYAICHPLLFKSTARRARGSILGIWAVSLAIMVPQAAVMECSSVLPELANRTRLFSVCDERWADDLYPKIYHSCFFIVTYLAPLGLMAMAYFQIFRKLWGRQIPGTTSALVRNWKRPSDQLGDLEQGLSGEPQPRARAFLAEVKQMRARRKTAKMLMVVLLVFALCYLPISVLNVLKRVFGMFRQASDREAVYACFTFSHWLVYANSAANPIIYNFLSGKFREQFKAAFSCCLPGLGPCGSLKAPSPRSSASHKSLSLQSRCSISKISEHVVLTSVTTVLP
PROTOCOL_SUMMARY: Antagonist activity at human OX1R expressed in CHO cells assessed as reduction in [Ala6,12]orexin-A-induced intracellular Ca2+ mobilization incubated for 30 mins by Fluo-4AM dye based fluorescence assay
pIC50: −log10 of the molar value.
Returns criterion met if the recorded pIC50 is greater than or equal to 8, and criterion not met otherwise.

Cc1ccc(-n2nccn2)c(C(=O)N(C)[C@@H](C)Cn2cc(-c3ccc(F)cn3)cn2)c1: criterion met
CCN(C(=O)c1cc(F)ccc1-c1ncccn1)[C@@H](C)Cc1noc(-c2ccc(F)cc2)n1: criterion met
CCN(C(=O)c1cc(C)ccc1-n1nccn1)[C@@H](C)Cn1ccc(-c2ccc(F)cn2)n1: criterion met
Cc1ccc(-n2nccn2)c(C(=O)N(C)[C@@H](C)Cn2ccc(-c3ccc(F)cn3)n2)c1: criterion met
CCN(C(=O)c1ccccc1-n1nccn1)[C@@H](C)Cn1nnc(-c2ccc(F)cc2)n1: criterion met
Cc1ccc(-n2nccn2)c(C(=O)N(C)[C@H](Cn2ccc(-c3ccc(F)cn3)n2)C(C)C)c1: criterion not met
CCN(C(=O)c1cc(C)ccc1-c1ncccn1)[C@@H](C)Cc1noc(-c2ccc(F)cn2)n1: criterion met
CCN(C(=O)c1cc(C)ccc1-n1nccn1)[C@@H](C)Cn1nnc(-c2ccc(F)cn2)n1: criterion met
Cc1ccc(-n2nccn2)c(C(=O)N[C@@H](C)Cn2cc(-c3ccc(F)cn3)cn2)c1: criterion not met
CCN(C(=O)c1cc(C)ccc1-n1nccn1)[C@H](C)Cn1ccc(-c2ccc(F)cn2)n1: criterion not met
CCN(CCn1ccc(-c2ccc(F)cn2)n1)C(=O)c1cc(C)ccc1-n1nccn1: criterion met
CCN(C(=O)c1cc(C)ccc1-n1nccn1)[C@@H](C)Cn1cc(-c2ccc(F)cn2)nn1: criterion met
Cc1ccc(-n2nccn2)c(C(=O)NCCn2cc(-c3ccc(F)cn3)cn2)c1: criterion not met
CCN(C(=O)c1cc(C)ccc1-n1nccn1)[C@@H](C)Cc1noc(-c2ccc(F)cn2)n1: criterion met
CCN(C(=O)c1nc(C)ccc1-c1ncccn1)[C@@H](C)Cc1noc(-c2ccc(F)cc2)n1: criterion met
CCN(C(=O)c1cc(F)ccc1-n1nccn1)[C@@H](C)Cc1noc(-c2ccc(F)cc2)n1: criterion met
